All figures here come from patent US20200283521A1.

MEASURED_TARGET: T1, cynomolgus monkey C-KIT-Fc (cynomolgus monkey)
T1 construct: also called cyno C-KIT-Fc
METHOD: HTRF competition vs Tb-h37M IgG1
MEASUREMENT_KIND: IC50 (µg/mL)
Give the value, in units of µg/mL, as a plain number.

BINDER	VALUE_OBSERVED
MH5.24 (antibody, IgG1, V domains shown, IgG1; also called C-KIT-MH5.24) VH: QVQLVQSGAEVKKPGASVKVSCKASGYTFTDFYMNWVRQAPGQGLEWMGRIYPASGNTYYAQKFQGRVTMTRDTSTSTVYMELSSLRSEDTAVYYCARGVWYFDTWGQGTLVTVSS VL: DIQMTQSPSSLSASVGDRVTITCRASQGIRTNLAWFQQKPGKAPKSLIYAASSLQSGVPSRFSGSGSGTDFTLTISSLQPEDFATYYCQQYANYPRTFGGGTKVEIK	2.74
MH5.2 (antibody, IgG1, V domains shown, IgG1; also called C-KIT-MH5.2) VH: QVQLVQSGAEVKKPGASVKVSCKASGYTFTDFYMNWVRQAPGQGLEWMGRIYPGTGNTYYAQKFQGRVTMTRDTSTSTVYMELSSLRSEDTAVYYCARGVWYYDYWGQGTLVTVSS VL: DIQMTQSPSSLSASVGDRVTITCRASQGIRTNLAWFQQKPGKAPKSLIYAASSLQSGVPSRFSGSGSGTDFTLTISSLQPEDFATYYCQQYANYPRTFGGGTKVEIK	0.254

Next item in the queue.
Given MH5, human IgG1 (antibody, V domains shown, IgG1; also called C-KIT-MH5; C-KIT-MHS) VH: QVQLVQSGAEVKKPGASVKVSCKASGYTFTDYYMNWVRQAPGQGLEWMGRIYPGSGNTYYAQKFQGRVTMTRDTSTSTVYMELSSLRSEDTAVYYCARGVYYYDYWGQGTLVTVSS VL: DIQMTQSPSSLSASVGDRVTITCRASQGIRTNLAWFQQKPGKAPKSLIYSASSLQSGVPSRFSGSGSGTDFTLTISSLQPEDFATYYCQQYANYPRTFGGGTKVEIK , state its recorded IC50.
0.058
